- System name: human recombinant mGluR5 (Homo sapiens, UniProt P41594)
- Sequence (P41594 21-1212): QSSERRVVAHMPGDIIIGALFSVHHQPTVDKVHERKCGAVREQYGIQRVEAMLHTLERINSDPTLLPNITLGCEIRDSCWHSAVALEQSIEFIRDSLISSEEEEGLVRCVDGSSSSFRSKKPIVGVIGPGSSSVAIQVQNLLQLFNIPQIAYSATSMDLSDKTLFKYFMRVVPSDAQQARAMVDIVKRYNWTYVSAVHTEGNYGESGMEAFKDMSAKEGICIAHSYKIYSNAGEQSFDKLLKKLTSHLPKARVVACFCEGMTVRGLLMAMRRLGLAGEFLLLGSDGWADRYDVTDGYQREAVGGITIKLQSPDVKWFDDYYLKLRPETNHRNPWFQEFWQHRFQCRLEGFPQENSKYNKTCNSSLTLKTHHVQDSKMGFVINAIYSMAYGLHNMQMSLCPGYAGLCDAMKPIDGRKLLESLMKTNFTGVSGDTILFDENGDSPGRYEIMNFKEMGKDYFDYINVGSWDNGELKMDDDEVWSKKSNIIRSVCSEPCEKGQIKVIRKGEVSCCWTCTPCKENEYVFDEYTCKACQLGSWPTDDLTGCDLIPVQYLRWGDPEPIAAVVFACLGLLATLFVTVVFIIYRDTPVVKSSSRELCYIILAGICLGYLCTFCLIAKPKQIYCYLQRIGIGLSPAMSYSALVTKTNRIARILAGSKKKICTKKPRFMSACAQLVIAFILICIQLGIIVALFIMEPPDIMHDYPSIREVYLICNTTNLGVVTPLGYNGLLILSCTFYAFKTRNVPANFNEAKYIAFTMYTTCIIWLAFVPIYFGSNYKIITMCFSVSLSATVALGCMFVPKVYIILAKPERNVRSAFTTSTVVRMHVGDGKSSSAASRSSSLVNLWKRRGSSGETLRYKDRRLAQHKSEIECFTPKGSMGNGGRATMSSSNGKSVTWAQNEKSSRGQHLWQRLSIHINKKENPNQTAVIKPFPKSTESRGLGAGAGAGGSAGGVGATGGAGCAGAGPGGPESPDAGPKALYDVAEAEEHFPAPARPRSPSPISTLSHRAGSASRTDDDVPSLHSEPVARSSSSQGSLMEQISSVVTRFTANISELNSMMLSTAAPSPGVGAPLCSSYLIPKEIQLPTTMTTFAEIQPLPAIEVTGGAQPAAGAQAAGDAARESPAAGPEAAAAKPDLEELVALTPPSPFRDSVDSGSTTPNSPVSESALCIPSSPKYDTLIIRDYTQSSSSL
- Assay text: positive modulation of mGluR5, calcium based FLIPR assay
- Condition info: HEK 293 cell line expressing human recombinant mGluR5; EC50 of the modulation from peak Ca fluorescence signal after glutamate at approx. 5% basal stimulation
Reported metric: EC50
I'd appreciate it if you wrote the number followed by its unit.

# per-item lookup of EC50; items listed below
1. CCc1cc(-c2ccc(C)c(C)c2)nn1CC(=O)N1CCC(c2cc(OC)ncn2)CC1 [Example 7.02.092]
2. O=C(Cn1nc(-c2ccccc2)cc1-c1ccccc1)N1CCN(c2ccccc2)C(=O)C1 [Example 7.02.003]
3. Cc1nnc(C2CCN(C(=O)Cn3nc(-c4ccc(F)c(C)c4)cc3-c3ccccc3)CC2)o1 [Example 7.02.019]
4. COc1cc(C2=CCN(C(=O)Cn3nc(-c4ccc(F)c(C)c4)cc3-c3ccccc3)CC2)ncn1 [Example 7.02.022]
5. Cc1cc(-c2cc(-c3ccccc3)n(CC(=O)N3CCC(c4nnc(C(C)C)o4)CC3)n2)ccc1F [Example 7.02.017]
6. Cc1nnc(C2=CCN(C(=O)Cn3nc(-c4ccc(C)c(C)c4)cc3-c3ccccc3)CC2)o1 [Example 7.02.114]

Output:
["369 nM", "925 nM", "36 nM", "11 nM", "68 nM", "29 nM"]

* * *

- System name: human recombinant mGluR5 (Homo sapiens, UniProt P41594)
- Assay text: positive modulation of mGluR5, calcium based FLIPR assay
- Condition info: HEK 293 cell line expressing human recombinant mGluR5; EC50 of the modulation from peak Ca fluorescence signal after glutamate at approx. 5% basal stimulation
# true (1) = EC50 below 80 nM (exclusive); false (0) = EC50 at/above 80 nM

1. COc1ccc(-c2cc(-c3ccccc3)n(CC(=O)N3CCc4nc(C)sc4CC3)n2)cc1C [Example 7.02.240] ... false (0)
2. COc1ccc(-c2cc(-c3ccccc3)n(CC(=O)N3Cc4nc(C)oc4C3)n2)cc1C ... true (1)
3. CCCc1cc(-c2ccc(F)c(C)n2)nn1CC(=O)N1Cc2nc(C)oc2C1 ... false (0)
4. Cc1cc(-c2cc(-c3ccccc3)n(CC(=O)N3CCc4cccnc4CC3)n2)ccc1F ... true (1)
5. Cc1nc2c(o1)CN(C(=O)Cn1nc(-c3ccc(OC(F)F)cc3)cc1-c1ccccc1)C2 ... true (1)
6. COc1cc(C2=CCN(C(=O)Cn3nc(-c4cccc(C)c4)cc3-c3ccccc3)CC2)ncn1 ... true (1)
7. CCCc1cc(-c2ccc(F)c(C)c2)nn1CC(=O)N1CCN(c2noc(C)n2)CC1 ... true (1)
8. Cc1cc(-c2cc(-c3ccccc3)n(CC(=O)N3CCc4ccsc4CC3)n2)ccc1F ... true (1)
9. Cc1cnc(C2=CCN(C(=O)Cn3nc(-c4ccc(F)c(C)c4)cc3-c3ccccc3)CC2)o1 ... true (1)
10. COc1cc(-c2cc(-c3ccccc3)n(CC(=O)N3CCc4nc(C)sc4CC3)n2)ccc1F ... true (1)

Task: For `Cc1nc2c(s1)CCN(C(=O)Cn1nc(-c3ccc(F)c(C)c3)cc1CC(C)C)CC2` , is the recorded EC50 below the cut-off of 80 nM?
Output: true (1)

Task: For `Cc1nnc(N2CCN(C(=O)Cn3nc(-c4ccc(F)c(C)c4)cc3C)CC2)o1` , is the recorded EC50 below the cut-off of 80 nM?
Output: false (0)

Task: For `COc1cc2c(cc1OC)CN(C(=O)Cn1nc(-c3ccccc3)cc1-c1ccccc1)CC2` , is the recorded EC50 below the cut-off of 80 nM?
Output: false (0)

Task: For `Cc1nc2c(o1)CN(C(=O)Cn1nc(-c3ccc(C)c(F)c3)cc1-c1ccccc1)C2` , is the recorded EC50 below the cut-off of 80 nM?
Output: true (1)

Task: For `CCc1cc(-c2ccc(C)c(C)c2)nn1CC(=O)N1CCC(c2ncc(OC)cn2)CC1` , is the recorded EC50 below the cut-off of 80 nM?
Output: false (0)

Task: For `Cc1nc2c(o1)CN(C(=O)Cn1nc(-c3ccc(OC(F)F)cn3)cc1-c1ccccc1)C2` , is the recorded EC50 below the cut-off of 80 nM?
Output: true (1)
